// provenance: ChEMBL document CHEMBL4270612

Assign MIC to each entry below.
system: Escherichia coli; assay: Antibacterial activity against tolC deficient Escherichia coli after 24 hrs by broth microdilution method; type: functional
Dear colleague, please return just the value in µg/mL, with no unit written.

Prompt: Reported MIC, compound `CCNC(=O)Nc1cc(-c2nc(C(F)(F)F)cs2)c(-c2cc(-c3n[nH]c(=O)o3)cnc2N2CCC(N)CC2)cn1` : ____
Completion: 9.2

Prompt: Reported MIC, compound `CCNC(=O)Nc1cc(-c2nc(C(F)(F)F)cs2)c(-c2cc(C(=O)O)cnc2N2C3CCC2CN(C)C3)cn1` : ____
Completion: 1.12

Prompt: Reported MIC, compound `CCNC(=O)Nc1cc(-c2nc(C(F)(F)F)cs2)c(-c2cc(-c3n[nH]c(=O)o3)cnc2N2C3CCC2CN(C)C3)cn1` : ____
Completion: 0.12

Prompt: Reported MIC, compound `CCNC(=O)Nc1cc(-c2nc(C(F)(F)F)cs2)c(-c2cc(-c3n[nH]c(=O)o3)cnc2N2[C@@H]3CC[C@H]2C[C@@H](N)C3)cn1` : ____
Completion: 4.8

Prompt: Reported MIC, compound `CCNC(=O)Nc1cc(-c2nc(C(F)(F)F)cs2)c(-c2cc3ncccc3nc2N2[C@@H]3CC[C@H]2C[C@@H](N)C3)cn1` : ____
Completion: 0.56

Prompt: Reported MIC, compound CCNC(=O)Nc1cc(-c2nc(C(F)(F)F)cs2)c(-c2cc3ncccc3nc2N2CC3CCC2CN3)cn1 (configuration not stated) : ____
Completion: 1.1

Prompt: Reported MIC, compound `CCNC(=O)Nc1cc(-c2nc(C(F)(F)F)cs2)c(-c2cc3ncccc3nc2N2CC3CCCC(C2)N3)cn1` : ____
Completion: 0.28

====

target: DNA gyrase subunit B (Escherichia coli); assay: Inhibition of Escherichia coli GyrB (1 to 220 residues) expressed in Escherichia coli BL21(DE3)
Assign IC50 to each entry below.
Dear colleague, please return just the value in nM, with no unit written.

Prompt: Reported IC50, molecule CCNC(=O)Nc1cc(-c2nc(C(F)(F)F)cs2)c(-c2cc3ncccc3nc2N2CC3CCC2CN3)cn1 (centres undefined) : ____
Completion: 8

Prompt: Reported IC50, molecule `CCNC(=O)Nc1cc(-c2nc(C(F)(F)F)cs2)c(-c2cc3ncccc3nc2N2CCC(N)CC2)cn1` : ____
Completion: 6

Prompt: Reported IC50, molecule `CCNC(=O)Nc1cc(-c2nc(C(F)(F)F)cs2)c(-c2cc(C(=O)O)cnc2N2C3CCC2CN(C)C3)cn1` : ____
Completion: 6

Prompt: Reported IC50, molecule `CCNC(=O)Nc1cc(-c2nc(C(F)(F)F)cs2)c(-c2cc3ncccc3nc2N2C3CCC2CN(C)C3)cn1` : ____
Completion: 7

Prompt: Reported IC50, molecule `CCNC(=O)Nc1cc(-c2nc(C(F)(F)F)cs2)c(-c2cc(-c3n[nH]c(=O)o3)cnc2N2CCC(N)CC2)cn1` : ____
Completion: 2

Prompt: Reported IC50, molecule `CCNC(=O)Nc1cc(-c2nc(C(F)(F)F)cs2)c(-c2cc3ncccc3nc2N2CC3CCCC(C2)N3)cn1` : ____
Completion: 14

Prompt: Reported IC50, molecule `CCNC(=O)Nc1cc(-c2nc(C(F)(F)F)cs2)c(-c2cc(C(=O)NS(C)(=O)=O)cnc2N2C3CCC2CN(C)C3)cn1` : ____
Completion: 8

Prompt: Reported IC50, molecule `CCNC(=O)Nc1cc(-c2nc(C(F)(F)F)cs2)c(-c2cc(-c3n[nH]c(=O)o3)cnc2N2C3CCC2CN(C)C3)cn1` : ____
Completion: 6

Prompt: Reported IC50, molecule `CCNC(=O)Nc1cc(-c2nc(C(F)(F)F)cs2)c(-c2cc3ncccc3nc2N2C3CC2CN(C)C3)cn1` : ____
Completion: 5
